Where do these numbers come from? They come from the supplement of paper PMC10567573.

Overview of recorded protein stability index for various variants
B1: PCMTD2 (parent)
chain: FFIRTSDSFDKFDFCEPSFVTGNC

# Variants of: B1
# EXPERIMENT: protein stability index of a GFP-peptide fusion (GPS, HEK-293T) (PSI 1-6); higher = more stable;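 also: lentivirally expressed fusions sorted by FACS into six bins by GFP to DsRed ratio, PSI derived from sequencing read proportions per bin multiplied by bin number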
# TEST CONTEXT: c terminus: a fixed tail appended

FFIKTSDSFDKFDFCEPSFVTGNC [R4K] :: 1.99

Exercise: Which measured protein stability index value corresponds to FFIRTSDSFDKFDFCEPSFVTGCC [N23C] ?
Solution: 3.73
